The origin of these recorded values is patent US20220177587A1.

I'd appreciate it if you could supply MFI at 33.3 nM values for the items below.
# measurementTarget: human CTLA-4 (human) (UniProt P16410)
# Sequence (P16410 36-223): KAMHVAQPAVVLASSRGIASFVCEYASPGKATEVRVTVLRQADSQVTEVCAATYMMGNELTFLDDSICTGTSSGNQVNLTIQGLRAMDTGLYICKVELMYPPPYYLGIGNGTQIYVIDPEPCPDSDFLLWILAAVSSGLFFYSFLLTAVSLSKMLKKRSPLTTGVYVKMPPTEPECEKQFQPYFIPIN
# assayText: flow cytometry, CHO cells stably expressing CTLA4
Answers are plain numbers, in MFI.

- binder: "variant CD80 IgV-Fc H18Y/A26E/M47L/D90G (Fc fusion) VIHVTKEVKEVATLSCGYNVSVEELEQTRIYWQKEKKMVLTMMSGDLNIWPEYKNRTIFDITNNLSIVILALRPSDEGTYECVVLKYEKGAFKREHLAEVTLSVKAD"
  unitSymbol: "MFI"
  MFI at 33.3 nM: 23500

# context switch: different binder, same MFI at 33.3 nM
Lab note: variant CD80 IgV-Fc H18Y/E35D/A71G/D90G (Fc fusion) VIHVTKEVKEVATLSCGYNVSVEELAQTRIYWQKDKKMVLTMMSGDMNIWPEYKNRTIFDITNNLSIVILGLRPSDEGTYECVVLKYEKGAFKREHLAEVTLSVKAD gave MFI at 33.3 nM of 25900
